- measurement target: histamine (H1) receptor (Cavia porcellus)
- Construct: Separated cerebral cortices were homogenized in 50-folds volume of 50 mM Na/K-phosphate buffer (pH 7.4); from tissue; host or cells: guinea-pig cerebral cortex, crude membrane fraction (homogenate)
- measurement notes: Inhibitory effects on ex vivo [^3 H]-mepyramine binding to guinea-pig cerebral cortex (degree of penetration into brain)
- Type: in vivo, guinea-pig (male Hartley)
- conditions: 2 h; oral, two hours; ex vivo [^3 H]-mepyramine binding, guinea-pig cerebral cortex; read-out: Degree of penetration activity (A) ID50
Structures can show the parent of a compound that is named as a salt.
Below: a set of entries, each annotated with reported ED50.
assay metric: ED50 (mg/kg)

> print(dat)
                                   molecule                        measurement.target  assay.metric   unit  numeric.value
1  O=C(O)CCN1CCC(=C2c3ccc(F)cc3OCc3cccnc32)CC1  histamine (H1) receptor (Cavia porcellus)          ED50  mg/kg             32
2  O=C(O)CCN1CCC(=C2c3ccc(Cl)cc3OCc3cccnc32)CC1 [Example 5-(2), Hydrochloride]  histamine (H1) receptor (Cavia porcellus)          ED50  mg/kg             53
3  O=C(O)CCN1CCC(=C2c3ccccc3OCc3cccnc32)CC1  histamine (H1) receptor (Cavia porcellus)          ED50  mg/kg             36
4  CCOC(=O)CN1CCC(=C2c3ccc(Cl)cc3CCc3cccnc32)CC1 [Reference compound D, reference compound]  histamine (H1) receptor (Cavia porcellus)          ED50  mg/kg             11
5  CN1CCC(=C2c3ccccc3CCc3cccnc32)CC1 [Reference compound A, Azatadine, reference compound]  histamine (H1) receptor (Cavia porcellus)          ED50  mg/kg          0.028

* * *

- System: compound 48/80-induced lethality (antihistaminic (H1) activity)
- measurement notes: Inhibitory effect on compound 48/80-induced lethality in rats (antihistaminic activity)
- Type: in vivo, rat (male Wistar)
- conditions: Rattus norvegicus, po, 2 h; 1 mg/kg orally one hour before compound 48/80 (1 mg/kg i.v.); survival after two hours; read-out: Survival rate
Structures can show the parent of a compound that is named as a salt.
assay metric: responders at 1 mg/kg (%)

> print(dat)
                                   compound  unit  numeric.value
1  O=C(O)CCCCCN1CCC(=C2c3ccc(Cl)cc3OCc3cccnc32)CC1 [Example 21-(2), Hydrochloride]     %            100
2  O=C(O)CCCN1CCC(=C2c3ccc(Cl)cc3OCc3cccnc32)CC1 [Example 18-(2), Hydrochloride]     %             80
3   O=C(O)CCN1CCC(=C2c3ccccc3Oc3cccnc32)CC1     %            100

* * *

- measurement target: histamine (H1) receptor (Cavia porcellus, UniProt P31389)
- Construct: Separated cerebral cortices were homogenized in 50-folds volume of 50 mM Na/K-phosphate buffer (pH 7.4); from tissue; host or cells: guinea-pig cerebral cortex, crude membrane fraction (homogenate)
- Sequence (P31389 whole entry): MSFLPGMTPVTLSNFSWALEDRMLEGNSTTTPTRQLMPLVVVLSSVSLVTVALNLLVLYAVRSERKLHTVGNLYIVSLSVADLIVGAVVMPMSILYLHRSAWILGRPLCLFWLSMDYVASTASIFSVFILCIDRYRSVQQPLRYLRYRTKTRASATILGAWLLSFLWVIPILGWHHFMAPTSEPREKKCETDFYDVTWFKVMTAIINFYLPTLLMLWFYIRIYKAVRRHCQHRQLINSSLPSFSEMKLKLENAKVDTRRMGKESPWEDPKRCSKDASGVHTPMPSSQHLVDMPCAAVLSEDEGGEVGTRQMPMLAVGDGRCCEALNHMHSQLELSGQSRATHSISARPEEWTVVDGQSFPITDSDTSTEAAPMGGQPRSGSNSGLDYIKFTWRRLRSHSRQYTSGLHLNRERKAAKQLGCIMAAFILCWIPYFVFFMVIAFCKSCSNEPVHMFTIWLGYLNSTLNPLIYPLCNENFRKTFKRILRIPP
- measurement notes: Inhibitory effects on ex vivo [^3 H]-mepyramine binding to guinea-pig cerebral cortex (degree of penetration into brain)
- Format: in vivo, guinea-pig (male Hartley)
- conditions: ratio of ID50 (brain penetration, C) to ED50 (antiasthmatic activity, B)
Counter-ions that a name gives are not always drawn.
assay metric: Selectivity (C/B)

> print(dat)
                                   compound                        measurement.target  result
1  O=C(O)CCN1CCC(=C2c3ccccc3OCc3cccnc32)CC1 [Example 1-(2)]  histamine (H1) receptor (Cavia porcellus, UniProt P31389)     439
2  O=C(O)CCN1CCC(=C2c3ccc(F)cc3OCc3cccnc32)CC1 [Example 2-(2)]  histamine (H1) receptor (Cavia porcellus, UniProt P31389)     696
3  CN1CCC(=C2c3ccccc3CCc3cccnc32)CC1 [Reference compound A, Azatadine, reference compound]  histamine (H1) receptor (Cavia porcellus, UniProt P31389)      28
4  O=C(O)CCN1CCC(=C2c3ccc(Cl)cc3OCc3cccnc32)CC1 [Example 5-(2), Hydrochloride]  histamine (H1) receptor (Cavia porcellus, UniProt P31389)    2304
5  CCOC(=O)CN1CCC(=C2c3ccc(Cl)cc3CCc3cccnc32)CC1 [Reference compound D, reference compound]  histamine (H1) receptor (Cavia porcellus, UniProt P31389)      38

* * *

Quick reference for Antiallergic activity (A) inhibition (%) among some compounds
- Test system: 48 h homologous passive cutaneous anaphylaxis (PCA)
- measurement notes: Inhibitory effects on 48 h homologous passive cutaneous anaphylaxis (PCA) in rats (antiallergic activity)
- Assay type: in vivo, rat (male Wistar)
- conditions: 1 mg/kg orally one hour before antigen challenge
Counter-ions that a name gives are not always drawn.
assay metric: Antiallergic activity (A) inhibition (%)

> print(dat)
                                   compound                              assay.metric  numeric.value
1  O=C(O)CCN1CCC(=C2c3ccc(Cl)cc3OCc3cccnc32)CC1 [Example 5-(2), Hydrochloride]  Antiallergic activity (A) inhibition (%)             79
2  CC(=O)N1CCC(=C2c3ccc(Cl)cc3OCc3cccnc32)CC1 [Reference compound C]  Antiallergic activity (A) inhibition (%)            -11
3  O=C(O)CCN1CCC(=C2c3ccccc3OCc3cccnc32)CC1  Antiallergic activity (A) inhibition (%)             80
4  CCOC(=O)N1CCC(=C2c3ccc(Cl)cc3CCc3cccnc32)CC1 [Reference compound B, Loratadine]  Antiallergic activity (A) inhibition (%)             38
5  O=C(O)CCN1CCC(=C2c3ccc(F)cc3OCc3cccnc32)CC1  Antiallergic activity (A) inhibition (%)             78
6  CN1CCC(=C2c3ccccc3CCc3cccnc32)CC1 [Reference compound A, Azatadine, reference compound]  Antiallergic activity (A) inhibition (%)             77
7  CCOC(=O)CN1CCC(=C2c3ccc(Cl)cc3CCc3cccnc32)CC1 [Reference compound D, reference compound]  Antiallergic activity (A) inhibition (%)             41

* * *

- measurement target: muscarinic acetylcholine receptor
- measurement notes: Inhibition of [^3 H]-QNB binding to rat cerebral cortex membrane (muscarinic acetylcholine receptor binding assay)
- conditions: -log Ki by Cheng and Prusoff
Where a name gives a salt, the structure may show the parent alone.
Each entry below lists one item and its recorded pKi value.
assay metric: pKi

> print(dat)
                                   molecule  assay.metric  result
1  O=C(O)CCN1CCC(=C2c3ccc(F)cc3OCc3cccnc32)CC1           pKi     < 5
2  CC(=O)N1CCC(=C2c3ccc(Cl)cc3OCc3cccnc32)CC1 [Reference compound C]           pKi    5.72
3  CCOC(=O)N1CCC(=C2c3ccc(Cl)cc3CCc3cccnc32)CC1 [Reference compound B, Loratadine]           pKi    6.04
4  CCOC(=O)CN1CCC(=C2c3ccc(Cl)cc3CCc3cccnc32)CC1 [Reference compound D, reference compound]           pKi    5.84
5  O=C(O)CCN1CCC(=C2c3ccc(Cl)cc3OCc3cccnc32)CC1 [Example 5-(2), Hydrochloride]           pKi     < 5
6  CN1CCC(=C2c3ccccc3CCc3cccnc32)CC1 [Reference compound A, Azatadine, reference compound]           pKi    8.47

* * *

responders at 1 mg/kg for assorted compounds
- Tested on: compound 48/80-induced lethality (antihistaminic (H1) activity)
- measurement notes: Inhibitory effect on compound 48/80-induced lethality in rats (antihistaminic activity)
- Assay type: in vivo, rat (male Wistar)
- conditions: Rattus norvegicus, po, 2 h; 1 mg/kg orally one hour before compound 48/80 (1 mg/kg i.v.); survival after two hours; read-out: Survival rate
Where a name gives a salt, the structure may show the parent alone.
assay metric: responders at 1 mg/kg (%)

> print(dat)
                                    compound  numeric.value
 1  O=C(O)CCCCN1CCC(=C2c3ccc(Cl)cc3OCc3cccnc32)CC1 [Example 20-(2), Hydrochloride]            100
 2  O=C(O)CCN1CCC(=C2c3ccc(Cl)cc3OCc3cccnc32)CC1 [Example 5-(2), Hydrochloride]            100
 3  O=C(O)CCN1CCC(=C2c3cccc(Cl)c3OCc3cccnc32)CC1 [Example 4-(2), Hydrochloride]            100
 4  O=C(O)CCCN1CCC(=C2c3ccc(F)cc3Oc3cccnc32)CC1            100
 5  O=C(O)CCCN1CCC(=C2c3ccc(F)cc3OCc3cccnc32)CC1            100
 6  CC(CN1CCC(=C2c3ccc(F)cc3OCc3cccnc32)CC1)C(=O)O (stereo not shown)            100
 7  O=C(O)CCCCCN1CCC(=C2c3ccc(F)cc3OCc3cccnc32)CC1 [Example 12-(2), Hydrochloride]            100
 8  CC(=O)N1CCC(=C2c3ccc(Cl)cc3OCc3cccnc32)CC1 [Reference compound C]             20
 9  CCOC(=O)CN1CCC(=C2c3ccc(Cl)cc3CCc3cccnc32)CC1 [Reference compound D, reference compound]             40
10  O=C(O)CCN1CCC(=C2c3ccc(F)cc3Oc3cccnc32)CC1            100
11  CCOC(=O)N1CCC(=C2c3ccc(Cl)cc3CCc3cccnc32)CC1 [Reference compound B, Loratadine]             60
12  CN1CCC(=C2c3ccccc3CCc3cccnc32)CC1 [Reference compound A, Azatadine, reference compound]             60
13  O=C(O)CCCCN1CCC(=C2c3ccc(F)cc3OCc3cccnc32)CC1            100
14  O=C(O)CCN1CCC(=C2c3ccccc3OCc3cccnc32)CC1             80
15  O=C(O)CCN1CCC(=C2c3cc(Cl)ccc3OCc3cccnc32)CC1            100
16  O=C(O)CCN1CCC(=C2c3ccc(F)cc3OCc3cccnc32)CC1            100
